- assay procedure: Flowability test (angle of repose)
- Format: physicochemical
- setup conditions: measurement 3
I'd be grateful if you could share measured angle of repose for these entries.
Give just the number in °; leave the unit off.

The compound C[C@@H]1Cc2c([nH]c3ccccc23)[C@@H](c2c(F)cc(/C=C/C(=O)O)cc2F)N1CC1(F)CC1 [amorphous form] showed angle of repose equal to 42.5

The compound C[C@@H]1Cc2c([nH]c3ccccc23)[C@@H](c2c(F)cc(/C=C/C(=O)O)cc2F)N1CC1(F)CC1 [crystal form C] showed angle of repose equal to 30.9

The compound C[C@@H]1Cc2c([nH]c3ccccc23)[C@@H](c2c(F)cc(/C=C/C(=O)O)cc2F)N1CC1(F)CC1 [crystal form A] showed angle of repose equal to 30.5

The compound C[C@@H]1Cc2c([nH]c3ccccc23)[C@@H](c2c(F)cc(/C=C/C(=O)O)cc2F)N1CC1(F)CC1 [crystal form B] showed angle of repose equal to 32.3
